Entries and their measured animals protected/animals tested follow.
tested on: 6 Hz 32 mA Epilepsy Model (electrically induced psychomotor seizure); experiment: Minimal clonic seizure (6 Hz, 32 mA) test; assay type: in vivo, Mouse; settings: 6 Hz 32 mA; Mouse, IP, 100 mg/kg, TPE 0.5 hrs

>  <Compound>
CCc1cc(Br)c(C(C)C)cc1O [Ex. 64, 4-Bromo-2-ethyl-5-isopropyl-phenol]

>  <Result>
3/4

$$$$
>  <Compound>
Cc1cc(O)c(C(C)C)cc1Br [Ex. 132, 4-Bromo-2-isopropyl-5-methyl-phenol]

>  <Result>
3/4

$$$$
>  <Compound>
Cc1cc(Br)c(C(C)C)cc1O [Ex. 9, 4-bromo-5-isopropyl-2-methyl phenol]

>  <Result>
3/4

$$$$
>  <Compound>
CC(C)c1cc(O)c(C(C)(C)C)cc1Br [Ex. 204, 4-Bromo-2-tert-butyl-5-isopropyl-phenol]

>  <Result>
2/4

$$$$

Fill in: animals protected/animals tested of Cc1cc(Br)c(C(C)(C)C)cc1O [Ex. 25, 4-Bromo-5-tert-butyl-2-methyl-phenol] is ___
2/4
